target: recombinant renin in human plasma (Homo sapiens); experiment: Inhibition of renin in human plasma (QFRET, plasma); settings: human EDTA plasma with 1 nM recombinant renin added; 37° C., 1 hour
Recorded IC50 values for a group of molecules are listed next.
Value expressed in nM; do not type the unit.

# MOLECULE, SYSTEM_UNDER_TEST, UNIT_ABBREV, IC50
data = [
    ("CC(=O)NCCc1ccccc1-c1ccc([C@H]2CNCC[C@@H]2c2cccnc2)c(C)c1 [Structure 4]", "recombinant renin in human plasma (Homo sapiens)", "nM", 28),
    ("COC(=O)NCCc1ccccc1-c1ccc([C@H]2CNCC[C@@H]2c2ccn(C)c(=O)c2)c(Cl)c1 (racemic) [Structure 62]", "recombinant renin in human plasma (Homo sapiens)", "nM", 4.9),
    ("COC[C@H](C)COCc1ccc([C@@]2(O)CCNC[C@@H]2c2noc(-c3ccccc3CCNC(C)=O)c2Br)cc1 [Structure 89]", "recombinant renin in human plasma (Homo sapiens)", "nM", 1.2),
    ("CC(=O)NCCc1ccccc1-c1ccc([C@H]2CNCC[C@@H]2c2cccnc2)c(Cl)c1 [Structure 13]", "recombinant renin in human plasma (Homo sapiens)", "nM", 4.1),
    ("CC(=O)NCCc1ccccc1-c1ccc([C@H]2CNCC[C@]2(O)c2ccc(F)c(F)c2)c(C)c1 (racemic) [Structure 51]", "recombinant renin in human plasma (Homo sapiens)", "nM", 5),
]

Attention now turns to another entry.
Need IC50, item CC(=O)NCCc1ccccc1-c1ccc([C@@H]2CNCC[C@H]2c2cccnc2)c(C)c1 [Structure 5]
7280

* * *

Target: Human recombinant renin (Homo sapiens, UniProt P00797)
Construct: purchased Proteos
Sequence (P00797 67-406): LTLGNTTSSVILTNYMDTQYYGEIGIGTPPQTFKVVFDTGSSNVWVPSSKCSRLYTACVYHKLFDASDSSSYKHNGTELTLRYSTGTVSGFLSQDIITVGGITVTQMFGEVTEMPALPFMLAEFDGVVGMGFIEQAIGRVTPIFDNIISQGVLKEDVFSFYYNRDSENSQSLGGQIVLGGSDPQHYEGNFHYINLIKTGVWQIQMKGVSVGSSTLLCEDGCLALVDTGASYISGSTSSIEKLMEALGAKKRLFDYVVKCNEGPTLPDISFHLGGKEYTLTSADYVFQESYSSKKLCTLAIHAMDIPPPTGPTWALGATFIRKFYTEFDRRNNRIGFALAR
Test: Inhibition of human recombinant renin (QFRET, buffer)
Format: biochemical
Details: buffer: 50 mM MOPS pH 7.4, 100 mM NaCl, 0.002% Tween 20; 37° C., 3 hours
Recorded pIC50 values for a group of molecules are listed next.
Scale for pIC50: -log10 of concentration given in mol/L; no unit attached.

Observe how each entry below is paired with its result.
# MOLECULE, pIC50
rows = [
    ("COCCCc1cc(OCCOC)ccc1-c1ccc([C@H]2CNCC[C@@H]2c2cccnc2)c(C)c1 (racemic) [Structure 6]", 6.42),
    ("COCCCC(CNC(C)=O)c1ccccc1-c1onc([C@H]2CNCC[C@@H]2c2ccc(OCCOc3c(Cl)cc(C)cc3Cl)cc2)c1Br (stereo partly shown) [Structure 108]", 10.15),
    ("CC(=O)NCCc1ccccc1-c1ccc([C@H]2CNCC[C@@H]2c2cc(F)cc(F)c2)c(C)c1 [Structure 16]", 9.23),
]

Attention now turns to another entry.
Need pIC50, item COCCC[C@@H](CNC(C)=O)c1ccccc1-c1onc([C@H]2CNCC[C@]2(O)c2ccc(F)c(F)c2)c1Br [Structure 100]
8.92

* * *

Recorded log10 of IC50 values for a group of compounds are listed next.
molecular target: Human recombinant renin (Homo sapiens, UniProt P00797); assay: Inhibition of human recombinant renin (QFRET, buffer); settings: buffer: 50 mM MOPS pH 7.4, 100 mM NaCl, 0.002% Tween 20; 37° C., 3 hours
# log10 transformed; quantity=IC50; unit=nM

# COMPOUND, SYSTEM_UNDER_TEST, log10 of IC50
data = [
    ("Cc1cccc(-c2noc([C@H]3CNCC[C@]3(O)c3ccc(F)c(F)c3)c2Br)c1C [Structure 73]", "Human recombinant renin (Homo sapiens, UniProt P00797)", -0.33),
    ("Cc1cc(-c2ccccc2CCNC(=O)C2CC2)ccc1[C@H]1CNCC[C@@H]1c1cc(F)cc(F)c1 (racemic) [Structure 31]", "Human recombinant renin (Homo sapiens, UniProt P00797)", 0.64),
    ("COCC(F)(F)COCc1ccc([C@@]2(O)CCNC[C@@H]2c2ccc(-c3ccccc3CCNC(C)=O)cc2C)cn1 [Structure 120]", "Human recombinant renin (Homo sapiens, UniProt P00797)", -0.18),
    ("Cc1cc(-c2ccccc2COc2cccnc2)ccc1[C@H]1CNCC[C@@H]1c1cc(F)cc(F)c1 (racemic) [Structure 36]", "Human recombinant renin (Homo sapiens, UniProt P00797)", -0.26),
    ("COCCCc1ccccc1-c1ccc([C@H]2CNCC[C@@H]2c2cccc3nc[nH]c23)c(Cl)c1 (racemic) [Structure 10]", "Human recombinant renin (Homo sapiens, UniProt P00797)", 0.54),
]

Need log10 of IC50, item CC(=O)NCCc1ccc(F)cc1-c1ccc([C@H]2CNCC[C@@H]2c2ccn(C)c(=O)c2)c(Cl)c1 (racemic) [Structure 65]
0.81

Try this compound too: COCCCc1ccc(-c2onc([C@H]3CNCC[C@]3(O)c3ccc(F)c(F)c3)c2Br)c(CCNC(C)=O)c1 [Structure 102]
-0.57

* * *

target: recombinant renin in human plasma (Homo sapiens); experiment: Inhibition of renin in human plasma (QFRET, plasma); conditions: human EDTA plasma with 1 nM recombinant renin added; 37° C., 1 hour
Use IC50 to assign classes; range list: range 1 (below 7 nM), range 2 (7 nM to below 800 nM), range 3 (800 nM or more)

For orientation, consider the following solved cases.
# MOLECULE, DISCRETE_LABEL
measured = [
    ("Cc1cc(-c2ccccc2COc2cccnc2)ccc1[C@H]1CNCC[C@@H]1c1cc(F)cc(F)c1 (racemic)", "range 2"),
    ("COCCCc1ccccc1-c1ccc([C@H]2CNCC[C@@H]2c2cc(F)cc(F)c2)c(C)c1 (racemic)", "range 3"),
    ("CC(=O)NCc1ccccc1-c1ccc([C@H]2CNCC[C@@H]2c2ccc(F)c(F)c2)cc1 (racemic)", "range 3"),
    ("CC(=O)NCCc1ccccc1-c1ccc([C@H]2CNCC[C@@H]2c2cccnc2N)c(Cl)c1 (racemic)", "range 3"),
    ("COC[C@H](C)COCc1ccc([C@@]2(O)CCNC[C@@H]2c2ccc(-c3ccccc3CCNC(C)=O)cc2Cl)cc1", "range 1"),
    ("C[C@H]1C[C@H](c2ccc(F)c(F)c2)[C@@H](c2nnc(-c3cccc(Cl)c3Cl)n2C2CC2)CN1", "range 1"),
    ("Cc1cc(-c2ccccc2CCNC(=O)c2ccn(C)n2)ccc1[C@H]1CNCC[C@@H]1c1cc(F)cc(F)c1 (racemic)", "range 2"),
    ("COCCCc1ccccc1-c1ccc([C@H]2CNCC[C@]2(O)c2cc(F)cc(F)c2)c(C)c1 (racemic)", "range 2"),
    ("O=C(CO)NCCc1ccccc1-c1ccc([C@H]2CNCC[C@@H]2c2ccc(F)c(F)c2)c(Cl)c1 (racemic)", "range 1"),
    ("COCCCc1ccccc1-c1ccc([C@H]2CNCC[C@@H]2c2cccnc2)c(C)c1 (racemic)", "range 2"),
]

Band assignment needed for "CC(=O)NCCc1ccccc1-c1onc([C@H]2CNCC[C@]2(O)c2ccc(COCCOC(C)C)cc2)c1Br" please.
range 2

Try this molecule too: Cc1cc(-c2ccccc2COc2ccccc2)ccc1[C@H]1CNCC[C@@H]1c1cc(F)cc(F)c1 (racemic)
range 3

Try this molecule too: "COC[C@H](C)COCc1ccc([C@@]2(O)CCNC[C@@H]2c2ccc(-c3ccccc3CCNC(=O)OC)cc2C)cc1"
range 1

* * *

target: Human recombinant renin (Homo sapiens); test: Inhibition of human recombinant renin (QFRET, buffer); settings: buffer: 50 mM MOPS pH 7.4, 100 mM NaCl, 0.002% Tween 20; 37° C., 3 hours
Lab note: compare IC50 with 0.7 nM, writing 1.0 if less and 0.0 if equal or more.

For orientation, consider the following solved cases.
# MOLECULE, DISCRETE_LABEL
records = [
    ("CC(=O)NCCc1ccccc1-c1onc([C@H]2CNCC[C@@H]2c2ccc(F)c(F)c2)c1Br", 1.0),
    ("CC(=O)NCCc1ccccc1-c1ccc([C@H]2CNCC[C@@H]2c2ccc(F)c(F)c2)cc1 (racemic)", 0.0),
    ("CO[C@]1(c2ccc(F)c(F)c2)CCNC[C@@H]1c1noc(-c2ccccc2CCNC(C)=O)c1Br", 1.0),
    ("CC(=O)NCCc1ccccc1-c1noc([C@H]2CNCC[C@]2(O)c2ccc(F)c(F)c2)c1Br", 1.0),
    ("O[C@]1(c2ccc(F)c(F)c2)CCNC[C@@H]1c1cc(-c2ccc(F)cc2Cl)no1", 0.0),
]

Just wondering, is IC50 of CCC(=O)NCCc1ccccc1-c1ccc([C@H]2CNCC[C@@H]2c2cc(F)cc(F)c2)c(C)c1 (racemic) below 0.7 nM?
1.0
